# Measurement protocol: SPECT/CT biodistribution of 111In-labeled tracers in HEK-FAP tumor-bearing mice
# Format: in vivo, mouse
# Condition: mouse, in vivo, iv, 1 h p.i., 30 MBq IV, HEK-FAP mice, n=9; read-out: Tumor %ID/g (mean ± SD)
Recorded metric: tissue uptake at 1 h

What does the data say about its tissue uptake at 1 h? Entry: CCCCCC(=O)N[C@H]1CSCc2cc(CSCCNC(=O)CN3CCN(CC(=O)O)CCN(CC(=O)O)CCN(CC(=O)O)CC3)cc(c2)CSC[C@@H](C(=O)O)NC(=O)[C@H](Cc2ccccc2)NC(=O)[C@H](CCC(N)=O)NC(=O)[C@H]([C@@H](C)O)NC(=O)[C@@H]2CCCN2C(=O)[C@@H]2CCCN2C1=O [^111In-FAP-2286, metal not drawn]
11.1 %ID/g
